assay-summary: inhibitors of Clostridioides difficile proliferation – 4-point retest, confirmation (AID 1224921);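 note: plate controls were DMSO wells for no effect and levofloxacin 16 µg/mL wells for full effect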
protocol-conditions: Clostridioides difficile clinical isolate growth, OD600, 24 h, stronger effect = lower value; at 30 µM unless noted
About 350 (25%) of roughly 1,400 compounds were called active. Inconclusive results (about 2%) are left out. These entries were drawn from the full list. Entries with a potency or affinity are not part of this list.
quantity-measured: max activity

C/C=C/c1ccc2c(c1)O[C@H](CN(C)C(=O)Cc1ccncc1)[C@@H](C)CN([C@H](C)CO)S2(=O)=O = -10.9% [at 8 µM] (inactive)
CO[C@@H]1CN(C)C(=O)c2ccc(NS(=O)(=O)c3cn(C)cn3)cc2OC[C@@H](C)N(Cc2ccc(C(F)(F)F)cc2)C[C@H]1C = 35.5% [at 8 µM] (inactive)
C[C@@H]1CCCCO[C@H](CN(C)Cc2ccc(C(F)(F)F)cc2)[C@H](C)CN([C@@H](C)CO)C(=O)c2cc(NS(C)(=O)=O)ccc2O1 = 30.2% (inactive)
C[C@H]1CN([C@@H](C)CO)C(=O)c2c(c3ccccc3n2C)-c2ccccc2CO[C@H]1CN(C)Cc1cccc(C(=O)O)c1 = -5.44% [at 0.5 µM] (inactive)
C[C@H](CO)N1C[C@H](C)[C@H](CN(C)Cc2ccncc2)Oc2cc(C3=CCCCC3)ccc2S1(=O)=O = 33% (inactive)

# input compound: O=C(Nc1cc(F)ccc1F)N[C@@H]1CC[C@@H](CC(=O)N2CCc3ccccc3C2)O[C@H]1CO ; wanted: its max activity 14.6% (inactive)
